Tested on: L. donovani promastigote
assay.procedure: Resazurin viability assay, L. donovani promastigotes
Assay type: cell-based
measurement.context: Leishmania donovani; promastigotes; 10-point dose response, 2-fold dilutions from 20 µM; read-out: L. donovani EC50 promastigote
measurement.kind: pEC50
// pEC50: -log10(molar conc.)

COc1cc(/C=N/NC(=O)c2cccc(C)c2O)ccc1OCc1ccccc1
5.57

# ---- query molecule ----
Problem: For the molecule Cc1nc2c(Cl)cccc2c(O)c1CN1CCCCC1C (centres unmarked) , report pEC50.
Solution: 7.30

---

Tested on: L. donovani promastigote
assay.procedure: Resazurin viability assay, L. donovani promastigotes
Type: cell-based
measurement.context: Leishmania donovani, read-out: EC50 of reference compound, L. donovani (grey dashed line)
measurement.kind: pEC50
// pEC50: -log10(molar conc.)

Problem: For the compound CC[n+]1c(-c2ccccc2)c2cc(N)ccc2c2ccc(N)cc21 [EtBr, Ethidium bromide] , report pEC50.
Solution: 8.30

---

Reported pEC50 values for the following compounds.
test.system: CYP2D6 (Homo sapiens, UniProt P10635)
Sequence (P10635 whole entry): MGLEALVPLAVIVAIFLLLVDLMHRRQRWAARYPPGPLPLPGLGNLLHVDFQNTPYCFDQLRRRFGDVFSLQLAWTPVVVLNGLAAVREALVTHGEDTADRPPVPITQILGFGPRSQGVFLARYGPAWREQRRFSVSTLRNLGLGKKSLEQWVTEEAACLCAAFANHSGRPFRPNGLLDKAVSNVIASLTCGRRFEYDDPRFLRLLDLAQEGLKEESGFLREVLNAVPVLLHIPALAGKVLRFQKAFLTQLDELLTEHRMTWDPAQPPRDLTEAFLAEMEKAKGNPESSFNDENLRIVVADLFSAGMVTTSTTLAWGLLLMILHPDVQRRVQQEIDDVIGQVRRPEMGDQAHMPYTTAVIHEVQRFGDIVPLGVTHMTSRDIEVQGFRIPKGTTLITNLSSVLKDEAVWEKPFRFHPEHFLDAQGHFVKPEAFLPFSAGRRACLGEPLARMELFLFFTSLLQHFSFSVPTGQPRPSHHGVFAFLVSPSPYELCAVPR
assay.procedure: CYP450 inhibition assay, fluorescent probe AMMC
Type: in vitro ADME
Method: Individual fluorescent probe substrates were used with individual rhCYP isozymes and fluorescence detection according to a previously published method. […] IC50 was determined using an eight-point concentration curve with three-fold serial dilutions. Victor3™ (Perkin Elmer) was used for quantification in the fluorescent method (Perkin Elmer Life and Analytical Sciences).
pEC50: −log10 of the molar value.

Cc1nc2c(Cl)cccc2c(O)c1CN1CCCCC1C (centres unmarked)
< 5.00

# ---- query compound ----
Problem: For the compound `COc1cc(/C=N/NC(=O)c2cccc(C)c2O)ccc1OCc1ccccc1` , report pEC50.
Solution: < 5.00

---

test.system: CYP3A4 (Homo sapiens)
measurement.kind: pIC50
// pIC50: -log10(molar conc.)

Problem: Please report the measured pIC50 for `COc1cc(/C=N/NC(=O)c2cccc(C)c2O)ccc1OCc1ccccc1` tested on CYP3A4 (Homo sapiens).
Solution: 5.47

---

test.system: CYP3A4 (Homo sapiens, UniProt P08684)
Sequence (P08684 whole entry): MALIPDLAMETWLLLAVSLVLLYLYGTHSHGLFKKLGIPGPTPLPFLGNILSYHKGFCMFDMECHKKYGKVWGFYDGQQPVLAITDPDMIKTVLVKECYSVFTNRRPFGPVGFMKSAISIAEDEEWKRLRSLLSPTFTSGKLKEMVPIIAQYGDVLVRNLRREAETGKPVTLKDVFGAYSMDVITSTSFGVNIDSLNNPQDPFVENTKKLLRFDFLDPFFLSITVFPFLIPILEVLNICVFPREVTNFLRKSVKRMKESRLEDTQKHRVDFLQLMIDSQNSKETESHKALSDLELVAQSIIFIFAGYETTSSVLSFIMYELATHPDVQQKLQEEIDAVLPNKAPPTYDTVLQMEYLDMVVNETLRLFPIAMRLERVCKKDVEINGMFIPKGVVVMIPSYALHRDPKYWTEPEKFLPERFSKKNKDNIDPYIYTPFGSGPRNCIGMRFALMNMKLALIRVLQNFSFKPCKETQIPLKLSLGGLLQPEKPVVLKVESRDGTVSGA
assay.procedure: CYP450 inhibition assay, fluorescent probe BFC
measurement.kind: EC50 (µM)
// return numeric value only (unit: µM, not printed)

Problem: For the compound `COc1cc(/C=N/NC(=O)c2cccc(C)c2O)ccc1OCc1ccccc1` , report EC50.
Solution: 3.41
